Origin of measurements: paper PMC6018403

Would you mind telling me the reported AUC(0-t) of each entry?
Measurement Notes: Multi-component pharmacokinetic study of GQD, GQD-GC and single herb extracts in rats (plasma, LC/MS/MS)
Assay type: in vivo, Sprague-Dawley rats
Condition Label: male, Sprague-Dawley, rat, in vivo, po, 3.54 g/kg, AUClast
Note: unit ng·h/mL is implicit; provide only the numeric part.

Report AUC(0-t) for O=c1cc(-c2ccccc2)oc2cc(O)cc(O)c12 please.
41.3

Entry c1c2c(cc3c1OCO3)-c1cc3ccc4c(c3c[n+]1CC2)OCO4 : reported AUC(0-t) = ?
73.2

Given the molecule COc1c(O)cc2oc(-c3ccccc3)cc(=O)c2c1O , what is its reported AUC(0-t)?
351

Need AUC(0-t) of COc1cc2c(cc1OC)-c1cc3ccc(OC)c(OC)c3c[n+]1CC2 , thanks.
51.5
